Tested on: Plasmodium falciparum
Assay: GSK_TCMDC: Inhibition of Plasmodium falciparum 3D7 in whole erythrocytes, using parasite LDH activity as an index of growth.
Type: functional, organism-based
Settings: Plasmodium falciparum, 3D7
# strict inequality: XC50 < 1000 nM yields YES, everything else yields NO

[[record]]
given_smiles = "Nc1nc(N)c2cc(C(F)(F)F)ccc2n1"
assigned_class = "NO"

[[record]]
given_smiles = "CCN(CC)CCN(Cc1ccc(-c2ccc(C(F)(F)F)cc2)cc1)C(=O)Cn1c(CCc2ccc(F)cc2)nc(=O)c2ccccc21"
assigned_class = "NO"

[[record]]
given_smiles = "COc1cc2c(Nc3ccc(NC(=O)c4ccccc4)cc3)ncnc2cc1OCCCN1CCOCC1"
assigned_class = "YES"


Please turn your attention to the following entry.
Strictly below 1000 nM: is that where XC50 of Oc1ccc(CCNc2nc(N/N=C/c3ccc(Cl)cc3)nc(N3CCNCC3)n2)cc1 sits?
YES

* * *

Tested on: Plasmodium falciparum
Test: GSK_TCMDC: Inhibition of Plasmodium falciparum 3D7 in whole erythrocytes, using parasite LDH activity as an index of growth.
Format: functional, organism-based
Settings: Plasmodium falciparum, 3D7
Class assignment keyed on XC50, ranges bottom bin (below 0.6 µM), middle bin (0.6 µM to below 0.9 µM), top bin (0.9 µM or more)

[[record]]
compound = "CN(C)CCOc1ccc(N2CCN(CCCCNC(=O)c3ccc(/C=C/c4cc(Cl)cc(Cl)c4)cc3)CC2)cc1"
assigned_class = "top bin"

[[record]]
compound = "O=C1CCCN1CCCNCc1cccc(-c2ccc(-c3nc4cc(C(F)(F)F)ccc4[nH]3)cc2)c1"
assigned_class = "bottom bin"

[[record]]
compound = "c1ccc2c(NCCCCCCCCCNc3ccnc4ccccc34)ccnc2c1"
assigned_class = "bottom bin"

[[record]]
compound = "OC1CCCN(Cc2ccc(-c3cccc(-c4nc5ccccc5[nH]4)c3)cc2)C1 (centres undefined)"
assigned_class = "top bin"


Please turn your attention to the following entry.
Class (by measured XC50) for CS(=O)(=O)Nc1ccc2[nH]cc(C3CCN(CC4CCN(C(=O)/C=C/c5ccc(Cl)c(Cl)c5)CC4)CC3)c2c1
middle bin

* * *

System: Plasmodium falciparum
Assay: GSK_TCMDC: Inhibition of Plasmodium falciparum 3D7 in whole erythrocytes, using parasite LDH activity as an index of growth.
Format: functional, organism-based
Details: Plasmodium falciparum, 3D7
Class assignment keyed on XC50, ranges lo (below 500 nM), mid (500 nM to below 800 nM), hi (800 nM or more)

[[record]]
compound = "Cc1ccc([N+](=O)[O-])cc1NC(=O)N(CC(O)c1ccccc1)C1CCCCC1 (centres undefined)"
study_system = "Plasmodium falciparum"
assigned_class = "mid"

[[record]]
compound = "Cc1cc(C(=O)OCC(=O)Nc2c(C)n(C)n(-c3ccccc3)c2=O)c(C)n1-c1ccc(F)cc1"
study_system = "Plasmodium falciparum"
assigned_class = "lo"


Class (by measured XC50) for O=C(NC1CCN(Cc2ccccc2)CC1)c1ccc(-c2nc3cc(F)c(F)cc3[nH]2)s1
hi

Class (by measured XC50) for O=C(/C=C/c1ccc(Cl)c(Cl)c1)NCCCCCN1CCC(NC(=O)NC2CCCCCC2)CC1
lo

Class (by measured XC50) for C=C[C@H]1CN2CC[C@H]1C[C@H]2[C@H](O)c1cc(/C=C/c2ccc(F)cc2)nc2ccc(OC)cc12
lo

Class (by measured XC50) for CC(C)(CNCc1ccc(Cl)c(Cl)c1)c1nc(-c2ccc(Cl)c(O)c2)c(-c2ccncc2)[nH]1
mid

Class (by measured XC50) for CC(C)(C)c1ccc(CN2CCC(CNC(=O)c3cc(-c4ccccc4C(F)(F)F)cs3)C2)cc1 (centres undefined)
hi

Class (by measured XC50) for COc1cccc2[nH]c(NCCCNCc3cc(Br)cc(Br)c3)nc12
hi

The measured values listed here are drawn from ChEMBL document CHEMBL1157539.
